Origin of values: patent US20260049076A1

Reported IC50 values are given for each entry in this list.
- Tested on: human DGKα (Homo sapiens, UniProt P23743)
- Construct: TVMV protease cleavage site (C); Hexa-His (C)
- Sequence (P23743 with tags, fused parts or gaps): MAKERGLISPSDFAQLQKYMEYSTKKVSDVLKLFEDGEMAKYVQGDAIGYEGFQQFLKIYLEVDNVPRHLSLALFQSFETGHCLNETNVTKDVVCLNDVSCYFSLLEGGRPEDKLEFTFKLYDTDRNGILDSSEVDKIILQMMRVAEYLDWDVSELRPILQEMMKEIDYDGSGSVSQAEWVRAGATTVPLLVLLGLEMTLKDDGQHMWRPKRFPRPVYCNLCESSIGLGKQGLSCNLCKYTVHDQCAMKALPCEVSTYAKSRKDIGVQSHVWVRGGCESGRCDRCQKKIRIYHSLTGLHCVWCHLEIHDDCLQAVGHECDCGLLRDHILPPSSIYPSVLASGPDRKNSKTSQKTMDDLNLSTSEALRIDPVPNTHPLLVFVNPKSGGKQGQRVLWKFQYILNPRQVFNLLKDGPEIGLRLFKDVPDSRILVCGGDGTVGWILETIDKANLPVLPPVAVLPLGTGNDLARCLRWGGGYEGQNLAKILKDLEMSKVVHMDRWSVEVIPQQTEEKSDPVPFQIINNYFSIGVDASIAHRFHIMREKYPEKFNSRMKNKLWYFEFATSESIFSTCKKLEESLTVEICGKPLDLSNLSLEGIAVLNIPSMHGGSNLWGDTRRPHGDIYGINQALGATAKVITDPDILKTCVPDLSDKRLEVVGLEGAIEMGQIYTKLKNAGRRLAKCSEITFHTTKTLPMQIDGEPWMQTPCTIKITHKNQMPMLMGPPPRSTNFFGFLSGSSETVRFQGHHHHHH
- Experimental details: In vitro DGK inhibition assay, DGKα liposome (LIPGLO) assay
- Condition parameters: read-out: Enzyme Inhibition DGKalpha IC50

COc1ccccc1-c1cccc(N(CC2CC2)c2cc(=O)n(C)c3ccc(C#N)nc23)c1 = 2.9 µM
Cn1c(=O)cc(N(CC2CC2)c2cccc(-c3cccc(Cl)c3)c2)c2nc(C#N)ccc21 = 2.5 µM
COc1ccc(-c2cccc(N(C)c3nc(=O)n(C)c4ccc(C#N)nc34)c2)cc1 = > 38 µM

Please give measured IC50 of the following entry: Cn1c(=O)cc(N(CC2CC2)c2cccc(-c3ccccc3Cl)c2)c2nc(C#N)ccc21 1.9 µM
